TARGET UNDER TEST: Tyrosine-protein kinase Lyn (Homo sapiens) (UniProt P07948);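 further: mean percent inhibition of the LYN A splice variant of the kinase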
Sequence (P07948 2-512 limits assumed): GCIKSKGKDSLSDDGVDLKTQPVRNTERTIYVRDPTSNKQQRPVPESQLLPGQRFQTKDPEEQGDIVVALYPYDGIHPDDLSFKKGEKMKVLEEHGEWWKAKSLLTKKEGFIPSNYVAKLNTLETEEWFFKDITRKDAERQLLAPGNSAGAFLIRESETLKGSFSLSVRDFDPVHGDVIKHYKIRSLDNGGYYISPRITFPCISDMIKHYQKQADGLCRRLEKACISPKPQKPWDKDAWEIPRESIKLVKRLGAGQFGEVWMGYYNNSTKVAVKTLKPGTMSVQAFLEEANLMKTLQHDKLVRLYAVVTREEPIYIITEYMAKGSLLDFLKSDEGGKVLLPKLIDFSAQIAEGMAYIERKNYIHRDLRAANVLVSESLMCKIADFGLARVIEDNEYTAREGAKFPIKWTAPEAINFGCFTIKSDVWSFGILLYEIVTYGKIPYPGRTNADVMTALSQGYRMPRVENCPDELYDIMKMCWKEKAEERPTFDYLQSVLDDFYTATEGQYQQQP
TEST CONTEXT: at 1 µM
Description: GSK_PKIS: LYN A (splice variant) mean inhibition at 1 uM [Nanosyn]
RESULT TYPE: inhibition (%)
Answer with a number only, understood to be in %.

inhibition lookup needed for CC1=C(C(=O)Nc2ccc3[nH]ncc3c2)C(c2ccc(Cl)c(Cl)c2)CC(=O)N1 (stereo not given) , thanks.
9.96

inhibition lookup needed for CC(C)=Cc1cccc2c1/C(=N/Nc1ccc(S(N)(=O)=O)cc1)C(=O)N2 , thanks.
35.8

inhibition lookup needed for CCn1c(-c2nonc2N)nc2c(N3CCCC3)nccc21 , thanks.
-0.07

inhibition lookup needed for COc1cc2ncn(-c3cc(O[C@@H](C)c4ccccc4Cl)c(C(N)=O)s3)c2cc1OC , thanks.
28.6

inhibition lookup needed for O=C1NC(=O)C(c2ccc(Cl)cc2)=C1Nc1ccc(Cl)c(C(=O)O)c1 , thanks.
-0.5

inhibition lookup needed for NC(=O)c1cccc(Nc2nccc(Nc3cccc4[nH]ncc34)n2)c1 , thanks.
91.3

inhibition lookup needed for N#Cc1c(NC(=O)c2cccc3ccccc23)sc2c1CCCC2 , thanks.
5.68

inhibition lookup needed for CC1=C(C(=O)Nc2ccc3[nH]ncc3c2)C(c2ccc(F)cc2)NC(=O)N1 (stereo not given) , thanks.
2.69

inhibition lookup needed for [O-][S+]1CCN(Cc2ccc(-c3ccc4ncnc(Nc5ccc(OCc6ccccc6)c(F)c5)c4c3)o2)CC1 , thanks.
5.34

inhibition lookup needed for CC(=O)Nc1cccc(C#Cc2cncnc2Nc2ccc(OCc3cccc(F)c3)c(Cl)c2)n1 , thanks.
4.88
